Provide the recorded viability for the entries that follow.
Test name: growth inhibitors of H69AR lung tumor, primary screen, human, duplicate replicates (AID 580);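 note: 100% = mean luminescence of untreated wells and 0% = no signal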
Stated conditions: H69AR lung tumor cells viability, ATP luminescence, 72 h; at 10 µM; stronger effect = lower value
Give bare numbers, in %.

CCc1[nH]nc2c1C(c1cccc(OC(=O)N3CCOCC3)c1)C(C#N)=C(N)O2 (stereo not given) :: 89.5
O=C(NCCC1=CCCCC1)c1cc2c(s1)CS(=O)(=O)C2 :: 88.5
COc1ccc(S(=O)(=O)Nc2ccc(F)c(F)c2)cc1Cl :: 90.2
COc1ccc(/C(O)=C2/C(=O)C(=O)N(CCN(C)C)C2c2ccccn2)cc1OC (stereo not given) :: 91.5
CSc1nc(NC(C)(C)C)nc(Oc2ccc(=O)[nH]n2)n1 :: 92.1
COc1ccc(CC(=O)OCC(=O)NC(=O)NC2CCCCC2)cc1 :: 92.4

For each entry beneath this line, provide reported viability.
1. Cc1cc(N2CCC3(CC2)OCCO3)n2nc(C)c(-c3ccc(Cl)cc3)c2n1
2. COc1cccc(-n2nc(C(=O)Nc3ccc4c(c3)OCO4)c3ccccc3c2=O)c1
3. COc1cc2nc(C3CCC3)n(NC(=O)C3CCCC(OC)C3)c(=O)c2cc1OC (stereo not given)
4. CCn1cc(S(=O)(=O)CC(=O)Nc2ccc(OC)cc2)c2ccccc21

[90.9, 92.2, 92.2, 91.8]

----------
Test name: reversal of MRP1-mediated doxorubicin resistance, pilot screen, H69AR cells, doxorubicin co-treatment (AID 601)
Stated conditions: H69AR cells + 2 uM doxorubicin, CellTiter-Glo, 72 h; at 10 µM; stronger effect = higher value
Each record is given 1 if its reported differential viability (reversal) is strictly below 20%. Records at or above 20% are given 0.

CCc1nc(C)c(-c2ccccc2)c(=O)[nH]1 :: 0
c1csc(-c2nc3nc4ccccc4nc3n2Cc2ccc3c(c2)OCO3)c1 :: 1
NC(=O)C1(N2CCCCC2)CCN(C2CC(=O)N(Cc3cccs3)C2=O)CC1 (stereo not given) :: 1
Cc1cccc(-c2noc(CCC(=O)Nc3ccccc3)n2)c1 :: 1

Does `CC1(C)NC(=O)N(CNc2cc(Cl)ccc2Cl)C1=O` have differential viability (reversal) strictly under 20%? 1

----------
Test name: reversal of MRP1-mediated doxorubicin resistance, pilot screen, H69AR cells, doxorubicin co-treatment (AID 601)
Stated conditions: H69AR cells + 2 uM doxorubicin, CellTiter-Glo, 72 h; measured here: viability with 2 uM doxorubicin; at 10 µM; stronger effect = lower value
Provide the recorded viability for the entries that follow.
One number for each entry, in %.

Past entries and their recorded results:
Cn1c(=O)[nH]c2cc3ccccc3cc21 :: 79.1
CCCN(C(=O)CSc1nnc(-c2ccoc2C)n1N)C1CCS(=O)(=O)C1 (stereo not given) :: 86.9
CCCn1cc(SCC(=O)NCc2ccco2)c2ccccc21 :: 78.6
CC(C)OC(=O)CSc1nnc(Cc2ccccc2)n1Cc1ccco1 :: 86.3

The compound listed as CCOc1ccc(C2CC(=O)NC3=C2C(=O)CCC3)cc1Cl (stereo not given) has a reported viability of 85.2

----------
Provide the recorded viability for the entries that follow.
Test name: SK-BR-3 cell growth inhibitors, pilot screen, 24 h, human (AID 572);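 note: compound exposure lasted between 18 and 24 h rather than exactly 24 h; 100% = carrier-treated control wells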
Stated conditions: SK-BR-3 viability, CellTiter-Glo luminescence, at 10 µM, stronger effect = lower value
Numbers only, in %.

CC(C)(C)NC(=O)COC(=O)c1ccc(O)cc1 :: 100
CCOC(=O)c1ccc(NC(=O)COc2ccc(-n3cnnn3)cc2)cc1 :: 124
COc1cc(C(=O)Nc2cccc(-c3nc4cc(C)ccc4o3)c2)cc(OC)c1OC :: 95
COc1ccc(C(NC(=O)C(C)(C)C)NC(=O)C(C)(C)C)cc1 :: 86
CC1(C)CC(=O)C(C=Nc2ccc3c(c2)OCO3)=C(O)C1 :: 114

For each entry beneath this line, provide reported viability.
1. O=c1[nH]c2ccccc2nc1NCCN1CCOCC1
2. CCCn1c2c(c(O)c(C(=O)Nc3ccc(C)cn3)c1=O)CCCC2
3. Cc1cc(NCCN2CCCCC2)n2c(nc3ccccc32)c1C#N
4. CC1N=C2c3ccccc3N=C(SCc3cc(=O)n4cc(Cl)ccc4n3)N2C1=O (stereo unspecified)
5. COc1ccc(-c2cc(C(F)(F)F)n3ncc(C(=O)NCC4CCCO4)c3n2)cc1 (stereo unspecified)
6. CCC(C)c1ccc(NC(=O)c2cccnc2)cc1 (stereo unspecified)

1. 97.5
2. 102
3. 87.5
4. 78.5
5. 84
6. 93

For each entry beneath this line, provide reported viability.
1. Cc1ccccc1NC(=O)C1CC(=O)N(c2ccccc2F)C1 (stereo unspecified)
2. CC1(C)Cc2cccc(OCC(O)CN3CCN(c4ccccn4)CC3)c2O1 (stereo unspecified)
3. Cc1nc(CCNC(=O)c2ccccc2)cs1
4. CC(C)(C)NC(=O)Cn1nnnc1-c1nonc1N

1. 91.5
2. 84
3. 92.5
4. 93

For each entry beneath this line, provide reported viability.
1. COC(=O)c1cc(OC)c(OCc2cc(C(=O)OC)oc2C)c(OC)c1
2. Cc1cccc(C)c1NC(=O)CS(=O)CC(=O)NC1CCCc2ccccc21 (stereo unspecified)
3. Cc1ccc2c(c1)CCCN2C(=O)Nc1ccc2c(c1)OCO2
4. CC(=O)NC(Cc1c[nH]c2ccccc12)C(=O)OCC(=O)Nc1cc(C)on1 (stereo unspecified)
5. COc1ccc(C2=NOC(C(=O)NCc3ccc(F)cc3)C2)cc1OC (stereo unspecified)

[95, 96.5, 95.5, 91.5, 95.5]

For each entry beneath this line, provide reported viability.
1. Cc1cc(C)c(NC(=O)C2CCCN2CCO)c(C)c1 (stereo unspecified)
2. COc1ccc(C2C(=O)N(C3CCCCC3)CC(=O)N2Cc2ccco2)cc1 (stereo unspecified)
3. O=C(CSc1nnnn1-c1ccccc1)c1cc2ccccc2oc1=O

1. 83
2. 110
3. 95.5

----------
Provide the recorded inhibition for the entries that follow.
Test name: growth suppression of yeast trafficking mutant, preliminary HTS, modulators of trafficking downstream of Golgi apparatus project, 1536-format plate, OD 615 nm (AID 637)
Stated conditions: yeast transport mutant growth, absorbance 615 nm, 18 h; stronger effect = higher value
Answers are plain numbers, in %.

Cc1nc(/N=C\N(C)C)sc1C(=O)Nc1ccccc1 :: -8
COC(=O)c1cccc(Oc2nc3c(c(=O)n(C)c(=O)n3C)n2C(C)C)c1 :: 2
O=C(CSc1nc2ccccc2s1)N1CCOCC1 :: -9.03

Now look at this entry.
The molecule listed as `O=C(NCCO)c1cccc2c1C(=O)c1ccccc1-2` has a reported inhibition of -1.48

----------
Provide the recorded viability for the entries that follow.
Test name: HUVEC growth inhibition – cell-based, human, primary screen (AID 575);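 note: 100% = median of untreated cell wells with 0.1% DMSO on each plate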
Stated conditions: HUVEC proliferation, CellTiter-Glo luminescence, 72 h; at 10 µM; stronger effect = lower value
Give bare numbers, in %.

CCOc1ccc(NC(=O)CN2CCN(CC(=O)Nc3ccc(F)c(F)c3)CC2)cc1 :: 89.3
CCNC(=O)N(C)c1nncnc1C(=O)NC :: 89.8
CC1(C)CC(=O)C=C(Nc2ccc(F)cc2)C1 :: 90.5
C=CCSc1nc2c(c(=O)[nH]c(=O)n2C)n1C(C)C :: 88.9

Now look at this entry.
The compound listed as `CCOC(=O)CSc1nc2ccccc2n2cnnc12` has a reported viability of 91.4

----------
Test name: HUVEC growth inhibition – cell-based, human, primary screen (AID 575);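 note: 100% = median of untreated cell wells with 0.1% DMSO on each plate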
Stated conditions: HUVEC proliferation, CellTiter-Glo luminescence, 72 h; at 10 µM; stronger effect = lower value
Each record is given Met if its reported viability is strictly below 90%. Records at or above 90% are given Not met.

COc1cc(NC(=O)Cc2nn(C)c(=O)c3ccccc23)cc(OC)c1 :: Met
O=C(c1ccc(Cl)c(F)c1F)N1CCCC1 :: Not met
CCn1nc(C(=O)OCC(=O)c2cc(C)n(Cc3cccs3)c2C)c2ccccc2c1=O :: Met

Does Cn1cccc1C1NC(=O)c2c(sc3c2CCC(C(C)(C)C)C3)N1 (stereo unspecified) have viability strictly under 90%? Not met

Does `Cc1ccc(S(=O)(=O)NC(=O)c2cc(C)n(CCCn3ccnc3)c2C)cc1` have viability strictly under 90%? Not met

----------
Test name: reversal of MRP1-mediated doxorubicin resistance, pilot screen, H69AR cells, doxorubicin co-treatment (AID 601)
Stated conditions: H69AR cells + 2 uM doxorubicin, CellTiter-Glo, 72 h; measured here: viability with 2 uM doxorubicin; at 10 µM; stronger effect = lower value
Each record is given MET if its reported viability is strictly below 90%. Records at or above 90% are given NOT MET.

COc1cc(OC)c(C2C(C#N)=C(N)OC3=C2C(=O)CC(C)(C)C3)cc1OC (configuration not stated) :: MET
COc1ccc2c(c1)n([O-])c1c([n+]2=O)CCC1 :: NOT MET
CCOc1ccc(CSC(CC(=O)O)C(=O)O)cc1 (configuration not stated) :: MET
O=C1C2CC=C(Cl)CC2C(=O)N1c1ncn[nH]1 (configuration not stated) :: NOT MET
O=C(CN(c1ccc(F)cc1)S(=O)(=O)c1ccc2c(c1)OCCO2)Nc1ccc2c(c1)OCO2 :: NOT MET

Now examine the next entry.
Does CCCCCCOC(=O)C(C#N)c1nc2ccccc2nc1N1CCCCC1 (configuration not stated) have viability strictly under 90%? NOT MET
